molecular target: rat brain lactate dehydrogenase; assay: Inhibition of rat brain lactate dehydrogenase (rat brain homogenate); type: biochemical; settings: standard reaction of Table 1; read-out: concentration required to inhibit the standard reaction by 50%
pIC50: −log10 of the molar value.
Metric Name: pIC50

Prompt line: Let me know recorded pIC50 for Nc1ncnc2c1ncn2[C@@H]1O[C@H](COP(=O)(O)OP(=O)(O)OC[C@H]2O[C@@H](N3C=CC(CC(=O)C(=O)O)C(C=O)=C3)[C@H](O)[C@@H]2O)[C@@H](O)[C@H]1O (stereo partly shown) [RAP] , thanks.
Response line: ~7.00

* * *

test: Stability of pyruvate adducts in solution and on storage; type: physicochemical; settings: neutral ph solution; neutral pH values; read-out: t1/2 of reversion to free pyruvate
Metric Name: half-life (min)
Write the number in min without appending the unit.

Prompt line: State its half-life for this molecule: Nc1ncnc2c1ncn2[C@@H]1O[C@H](COP(=O)(O)OP(=O)(O)OC[C@H]2O[C@@H](N3C=CC(CC(=O)C(=O)O)C(C=O)=C3)[C@H](O)[C@@H]2O)[C@@H](O)[C@H]1O (stereo partly shown)
Response line: 90

Hey, just so you know, these numbers are from patent US4950602A.
